test system: Plasmodium falciparum; experiment: Antiplasmodial activity against Plasmodium falciparum 3D7 infected in RBC by flow cytometry analysis; format: functional, organism-based
The following molecules are listed with their measured log10 IC50 values.
Log scale reminder: IC50 in µM, then log10 taken.

* O=C1C(O)=C([C@H]2CC[C@H](c3ccc(Cl)cc3)CC2)C(=O)c2ccccc21 [ATOVAQUONE] | -2.52
* O=C1C(O)=C(C(Sc2ccc(O)cc2)c2ccc([N+](=O)[O-])cc2)C(=O)c2ccccc21 (racemic) | 0.88
* O=C1C(O)=C(CSc2ccc(F)cc2)C(=O)c2ccccc21 | 0.85

Any idea what log10 IC50 came out for Cc1cccc(SC(C2=C(O)C(=O)c3ccccc3C2=O)c2ccccc2)c1 (racemic) on Plasmodium falciparum?
1.53

Request: COc1ccc(SCC2=C(O)C(=O)c3ccccc3C2=O)cc1
0.97

Request: CCCSC(C1=C(O)C(=O)c2ccccc2C1=O)c1ccccc1 (racemic)
1.14

Request: O=C1C(O)=C(CSc2ccc([N+](=O)[O-])cc2)C(=O)c2ccccc21
1.16

* * *

The following compounds are listed with their measured pIC50 values.
system: Plasmodium falciparum; experiment: Antiplasmodial activity against Plasmodium falciparum 3D7 infected in RBC by flow cytometry analysis; type: functional, organism-based
Field pIC50 (float): negative decimal logarithm of the concentration in molar.

Some solved cases for reference:
- O=C1C(O)=C(C(Sc2ccc(F)cc2)c2ccc([N+](=O)[O-])cc2)C(=O)c2ccccc21 (racemic): 4.84
- Cc1ccccc1SC(C1=C(O)C(=O)c2ccccc2C1=O)c1ccc([N+](=O)[O-])cc1 (racemic): 5.18
- O=C1C(O)=C(C(Sc2ccc([N+](=O)[O-])cc2)c2ccccc2)C(=O)c2ccccc21 (racemic): 4.86
- O=C1C(O)=C(C(Sc2ccccc2)c2ccc([N+](=O)[O-])cc2)C(=O)c2ccccc21 (racemic): 4.77
- O=C1C(O)=C(C(Sc2ccc3ccccc3c2)c2ccc([N+](=O)[O-])cc2)C(=O)c2ccccc21 (racemic): 4.70
- Cc1ccc(SCC2=C(O)C(=O)c3ccccc3C2=O)cc1: 5.17
- O=C1C(=O)c2ccccc2C(O)=C1CSc1ccc(Cl)cc1: 4.70
- CSc1ccc(SCC2=C(O)C(=O)c3ccccc3C2=O)cc1: 4.65
- Cc1cccc(SCC2=C(O)C(=O)c3ccccc3C2=O)c1: 5.27
- O=C1C(O)=C(CSc2ccccc2)C(=O)c2ccccc21: 4.57

Item CCCSCC1=C(O)C(=O)c2ccccc2C1=O has what recorded pIC50?
4.50

Request: O=C1C(O)=C(C(Sc2ccc(Cl)cc2)c2ccc([N+](=O)[O-])cc2)C(=O)c2ccccc21 (racemic)
5.12

* * *

system: Plasmodium falciparum; assay: Antiplasmodial activity against Plasmodium falciparum 3D7 infected in RBC by flow cytometry analysis; format: functional, organism-based
The following compounds are listed with their measured pIC50 values.
Field pIC50 (float): negative decimal logarithm of the concentration in molar.

- Cc1ccccc1SC(C1=C(O)C(=O)c2ccccc2C1=O)c1ccccc1 (racemic): 4.75
- Cc1cccc(SC(C2=C(O)C(=O)c3ccccc3C2=O)c2ccc([N+](=O)[O-])cc2)c1 (racemic): 4.97
- CCCSC(C1=C(O)C(=O)c2ccccc2C1=O)c1ccc([N+](=O)[O-])cc1 (racemic): 4.56
- CSc1ccc(SC(C2=C(O)C(=O)c3ccccc3C2=O)c2ccccc2)cc1 (racemic): 4.74
- Cc1ccccc1SCC1=C(O)C(=O)c2ccccc2C1=O: 5.01
- Cc1ccc(SC(C2=C(O)C(=O)c3ccccc3C2=O)c2ccc([N+](=O)[O-])cc2)cc1 (racemic): 4.57

# context switch: different compound, same pIC50
Item O=C1C(O)=C(CSc2ccc3ccccc3c2)C(=O)c2ccccc21 has what recorded pIC50?
4.84
